experiment: chemical genetic growth profiling, strain panel (AID 1159580);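 further: tested at 20 µM; growth read once vehicle control cultures reached saturation at 30 °C; lower values mean less growth of the strain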; settings: S. cerevisiae deletion strains, growth OD, locus YGR135W, strain pre9
In all, about 5,500 compounds went through this assay and about 2,000 (36%) were called active. Roughly 18% stayed inconclusive and do not appear here. No stated cut-off is given here; in the data, active means normalized growth mostly below about 0.91 (no sharp cut-off); inconclusive means no clear call, values can overlap the other calls; inactive means mostly above about 0.92. The list shows a part of the results.
Labels: active, inactive

>  <molecule>
CCC(C)C(=O)OC1[C@@H]2CC3=C4CC(=O)O[C@@H](c5ccoc5)[C@]4(C)CCC3[C@@](C)(C2=O)[C@@H](CC(=O)OC)C1(C)C (stereo partly specified)

>  <category>
inactive

$$$$
>  <molecule>
CC(C)c1ccc2c(c1)CCC1C(C)(C(N)=O)CCCC21C (stereo unspecified)

>  <category>
inactive

$$$$
>  <molecule>
Nc1ccc(C(=O)O)cc1

>  <category>
inactive

$$$$
>  <molecule>
CN(C)CCCN1c2ccccc2Sc2ccc(C(F)(F)F)cc21

>  <category>
inactive

$$$$
>  <molecule>
O=C1NC(O)=NC1(c1ccccc1)c1ccccc1

>  <category>
inactive

$$$$
>  <molecule>
CC12CCC(O)CC1CCC1C2[C@H](O)CC2(C)C(C3=CC(=O)OC3)CCC12O (stereo partly specified)

>  <category>
inactive

$$$$
>  <molecule>
Cc1cc(=O)[nH]c(=S)[nH]1

>  <category>
inactive

$$$$
>  <molecule>
OC[C@H]1O[C@@](CO)(O[C@@H]2O[C@H](CO)[C@@H](O)[C@H](O)[C@H]2O)[C@@H](O[C@@H]2O[C@H](CO)[C@@H](O)[C@H](O)[C@H]2O)[C@@H]1O

>  <category>
inactive

$$$$
>  <molecule>
O=P1(N(CCCl)CCCl)NCCCO1 (stereo unspecified)

>  <category>
inactive

$$$$
>  <molecule>
CC(C)CC(NC(=O)OCC1c2ccccc2-c2ccccc21)C(=O)O (stereo unspecified)

>  <category>
inactive

$$$$
>  <molecule>
CN(C)CCCN1c2ccccc2Sc2ccc(Cl)cc21

>  <category>
inactive

$$$$
>  <molecule>
CC(=O)N[C@@H](Cc1c[nH]c2ccccc12)C(N)=O

>  <category>
inactive

$$$$
>  <molecule>
CCCc1cc(=O)[nH]c(=S)[nH]1

>  <category>
inactive

$$$$
>  <molecule>
O=C(O)c1cccnc1

>  <category>
inactive

$$$$
>  <molecule>
CC(=O)O[C@@H]1C=C[C@@]2(C)C(C[C@@H](OC(C)=O)[C@@]3(C)C4=CC(=O)O[C@@H](c5ccoc5)[C@]4(C)CCC23)C1(C)C (stereo partly specified)

>  <category>
active

$$$$
>  <molecule>
CC(=O)O[C@@H]1CC2C(C)(C)C(=O)C=C[C@]2(C)C2CC[C@]3(C)C(=CC(=O)O[C@H]3c3ccoc3)[C@@]21C (stereo partly specified)

>  <category>
inactive

$$$$
>  <molecule>
CCN(CC)CCOC(=O)C1(C2CCCCC2)CCCCC1

>  <category>
inactive

$$$$
>  <molecule>
CC12CCC3C(CC3(C)C)C(C)(CCC1=O)O2 (stereo unspecified)

>  <category>
inactive

$$$$
>  <molecule>
CCC(C)[C@H]1O[C@]2(C=C[C@@H]1C)C[C@@H]1C[C@@H](C/C=C(\C)[C@@H](OC3C[C@H](OC)C(O[C@H]4C[C@H](OC)[C@@H](O)[C@H](C)O4)[C@H](C)O3)[C@@H](C)/C=C/C=C3\CO[C@@H]4[C@H](O)C(C)=C[C@@H](C(=O)O1)[C@]34O)O2 (stereo partly specified)

>  <category>
inactive

$$$$
>  <molecule>
CC(=O)O[C@@H]1CC2C(C)(C)[C@H](O)C=C[C@]2(C)C2CC[C@]3(C)C(=CC(=O)O[C@H]3c3ccoc3)[C@@]21C (stereo partly specified)

>  <category>
inactive

$$$$
>  <molecule>
CNNC

>  <category>
inactive

$$$$
>  <molecule>
NC1=NCCN1CC(=O)O

>  <category>
inactive

$$$$
>  <molecule>
O=C(O)c1ccc(S(=O)(=O)N(Cl)Cl)cc1

>  <category>
inactive

$$$$
>  <molecule>
C/C1=C/CC(C)(C)/C=C/C/C(C)=C/CC1

>  <category>
inactive

$$$$
>  <molecule>
C=C(C)C1CCC(C)(O)C2CC3OC3(C)C2C1 (stereo unspecified)

>  <category>
inactive

$$$$
>  <molecule>
Cc1ccc2c(c1)C1(C)CCCC(C)(C(=O)O)C1CC2 (stereo unspecified)

>  <category>
inactive

$$$$
>  <molecule>
CO[C@H]1CC(O[C@@H]2/C(C)=C/C[C@@H]3C[C@@H](C[C@]4(CC[C@H](C)[C@@H](C5CCCCC5)O4)O3)OC(=O)[C@@H]3C=C(C)/C(=N\O)[C@H]4OC/C(=C\C=C\[C@@H]2C)[C@]43O)O[C@@H](C)C1O (stereo partly specified)

>  <category>
inactive

$$$$
>  <molecule>
O=C(O)c1cc(O)c2c(c1)[C@@H]([C@H]1c3cc(C(=O)O)cc(O)c3C(=O)c3c(O[C@H]4O[C@H](CO)[C@@H](O)[C@H](O)[C@H]4O)cccc31)c1cccc(O[C@H]3O[C@H](CO)[C@@H](O)[C@H](O)[C@H]3O)c1C2=O

>  <category>
inactive

$$$$
>  <molecule>
COc1ccccc1OCC(O)CO (stereo unspecified)

>  <category>
inactive

$$$$
>  <molecule>
O=C(O)C1=CCCNC1

>  <category>
inactive

$$$$
>  <molecule>
COc1ccc2cc(CCC(C)=O)ccc2c1

>  <category>
active

$$$$
>  <molecule>
CC1(C)CC2C1CC[C@]1(CBr)CCC3C(CC(=O)O)C(=O)O[C@@]32C1 (stereo partly specified)

>  <category>
inactive

$$$$
>  <molecule>
C/C1=C\CC(C)(C)/C=C/CC2(C)OC2CC1 (stereo unspecified)

>  <category>
inactive

$$$$
>  <molecule>
CN(C)CCCN1c2ccccc2Sc2ccccc21

>  <category>
inactive

$$$$
>  <molecule>
CN(C)CCCN1c2ccccc2CCc2ccccc21

>  <category>
inactive

$$$$
>  <molecule>
CC(CCc1ccccc1)NCC(O)c1ccc(O)c(C(N)=O)c1 (stereo unspecified)

>  <category>
inactive

$$$$
>  <molecule>
CC(C)c1ccc2c(c1)CCC1[C@](C)(CN)CCC[C@]21C (stereo partly specified)

>  <category>
active

$$$$
>  <molecule>
CC(=O)OC1CCC2(C)C(CC(OC(C)=O)C3(C)C4=CC(=O)OC(c5ccoc5)C4(C)CCC23)C1(C)C (stereo unspecified)

>  <category>
inactive

$$$$
>  <molecule>
CN(C)CCCN1c2ccccc2CCc2ccc(Cl)cc21

>  <category>
active

$$$$
>  <molecule>
CS(=O)(=O)Nc1ccc([N+](=O)[O-])cc1Oc1ccccc1

>  <category>
inactive

$$$$
>  <molecule>
Nc1ccc(S(=O)(=O)NC(=O)c2ccccc2)cc1

>  <category>
inactive

$$$$
